B1: POU domain, class 2, transcription factor 3, residues 186 to 260; numbered along this chain, Q9UKI9 (parent)
chain: SDLEELEKFAKTFKQRRIKLGFTQGDVGLAMGKLYGNDFSQTTISRFEALNLSFKNMCKLKPLLEKWLNDAESSP

Variants of: B1
experimental details: abundance fitness (aPCA) (normalised: wild type 0, dead -1); higher = more abundant; growth selection in yeast, the domain comes from the species named
condition: Homo sapiens
parameter measured: abundance fitness

query: Entry under review: `E72C` . Reported abundance fitness?
result: -0.071

query: Entry under review: `S73E` . Reported abundance fitness?
result: -0.04

query: Entry under review: `D70T` . Reported abundance fitness?
result: 0.082

query: Entry under review: `S53K` . Reported abundance fitness?
result: -0.091

query: Entry under review: `Q41T` . Reported abundance fitness?
result: -0.04

query: Entry under review: `N37F` . Reported abundance fitness?
result: -0.139

query: Entry under review: `G25C` . Reported abundance fitness?
result: 0.105

query: Entry under review: `E65P` . Reported abundance fitness?
result: -0.58

query: Entry under review: `S45D` . Reported abundance fitness?
result: -0.048

query: Entry under review: `L64I` . Reported abundance fitness?
result: -0.224

query: Entry under review: `L64G` . Reported abundance fitness?
result: -0.784
